Molecular target: human KHK-C (Homo sapiens (Human), UniProt P50053)
Sequence (P50053 whole entry): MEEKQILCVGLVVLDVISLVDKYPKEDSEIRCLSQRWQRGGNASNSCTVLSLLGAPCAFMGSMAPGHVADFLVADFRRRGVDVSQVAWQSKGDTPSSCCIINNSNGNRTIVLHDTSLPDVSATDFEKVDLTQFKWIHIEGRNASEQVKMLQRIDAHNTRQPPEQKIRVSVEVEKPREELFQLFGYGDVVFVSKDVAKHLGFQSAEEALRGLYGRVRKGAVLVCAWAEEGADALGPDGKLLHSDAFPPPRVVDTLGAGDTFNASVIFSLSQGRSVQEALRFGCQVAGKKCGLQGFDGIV
Test: KHK Biochemical Assay (IC50), ADP-Glo, KHK-C
Conditions: ADP-Glo; average of at least two separate assays
compounds and their reported log10 IC50
parameter.measured: log10 IC50 (log10 of the value in nM)

1. C[C@H]1CCN1c1nc2c(c(-c3ccnc(NCCO)c3)n1)CCC2 : 1.68
2. C[C@H]1CCN1c1nc2c(c(-c3ccc4c(c3)CNC4=O)n1)CCC2 : 1.35
3. C[C@H]1CCN1c1nc2c(c(-c3ccc4c(c3)C(=O)NCCO4)n1)CCC2 : 1.52
4. C[C@H]1[C@H](O)CN1c1nc(-c2ccc(C(N)=O)cc2)c2c(n1)C(F)(F)CCC2 : 2.50
5. C[C@H]1CCN1c1nc2c(c(-c3ccc4c(=O)[nH]c(=O)n(C)c4c3)n1)CCC2 : 1.64
6. C[C@H]1CCN1c1nc2c(c(-c3cc4c(C(=O)O)cccc4[nH]3)n1)CCC2 : 2.00
7. C[C@H]1CCN1c1nc2c(c(-c3cccc(C#N)c3)n1)CCC2 : 2.57

* * *

molecules and their reported IC50
Molecular target: human KHK-A (Homo sapiens (Human), UniProt P50053)
Sequence (P50053 other isoform, or with tags, fused parts or gaps): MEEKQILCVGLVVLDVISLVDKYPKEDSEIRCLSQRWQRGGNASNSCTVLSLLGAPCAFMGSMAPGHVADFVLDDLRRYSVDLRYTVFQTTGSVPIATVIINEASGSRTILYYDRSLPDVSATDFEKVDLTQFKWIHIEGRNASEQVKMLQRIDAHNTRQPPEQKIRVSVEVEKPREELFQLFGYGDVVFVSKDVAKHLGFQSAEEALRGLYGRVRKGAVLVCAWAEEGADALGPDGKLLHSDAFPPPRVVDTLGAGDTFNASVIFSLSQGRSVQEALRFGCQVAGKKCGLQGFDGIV
Test: KHK Biochemical Assay (IC50), ADP-Glo, KHK-A
Details: average of at least two separate assays
parameter.measured: IC50 (nM)

1) C[C@H]1[C@H](O)CN1c1nc(-c2ccc3c(c2)OC[C@]32COCC(=O)N2)c2c(n1)C(F)(F)CC2 (single isomer, unassigned) [Example 498] : 18.9
2) COc1ccc(-c2nc(N3C[C@@H](O)[C@@H]3C)nc3c2CCC3(F)F)cc1[S@@](=N)(=O)C1CC1 (single isomer, unassigned) [Example 539] : 0.4
3) C[C@H]1[C@H](O)CN1c1nc(-c2cc(F)c3c(c2)OCCNC3=O)c2c(n1)C(F)(F)CC2 [Example 746] : 46.7
4) C[C@H]1[C@H](O)CN1c1nc(-c2ccc3c(c2)OCC32COCC(=O)N2)c2c(n1)C(F)(F)CC2 (stereo partly shown) [Example 497] : 2.2

* * *

molecules and their reported IC50
Target: human OATP1B1 (Homo sapiens (Human))
Sequence (Q9Y6L6 whole entry): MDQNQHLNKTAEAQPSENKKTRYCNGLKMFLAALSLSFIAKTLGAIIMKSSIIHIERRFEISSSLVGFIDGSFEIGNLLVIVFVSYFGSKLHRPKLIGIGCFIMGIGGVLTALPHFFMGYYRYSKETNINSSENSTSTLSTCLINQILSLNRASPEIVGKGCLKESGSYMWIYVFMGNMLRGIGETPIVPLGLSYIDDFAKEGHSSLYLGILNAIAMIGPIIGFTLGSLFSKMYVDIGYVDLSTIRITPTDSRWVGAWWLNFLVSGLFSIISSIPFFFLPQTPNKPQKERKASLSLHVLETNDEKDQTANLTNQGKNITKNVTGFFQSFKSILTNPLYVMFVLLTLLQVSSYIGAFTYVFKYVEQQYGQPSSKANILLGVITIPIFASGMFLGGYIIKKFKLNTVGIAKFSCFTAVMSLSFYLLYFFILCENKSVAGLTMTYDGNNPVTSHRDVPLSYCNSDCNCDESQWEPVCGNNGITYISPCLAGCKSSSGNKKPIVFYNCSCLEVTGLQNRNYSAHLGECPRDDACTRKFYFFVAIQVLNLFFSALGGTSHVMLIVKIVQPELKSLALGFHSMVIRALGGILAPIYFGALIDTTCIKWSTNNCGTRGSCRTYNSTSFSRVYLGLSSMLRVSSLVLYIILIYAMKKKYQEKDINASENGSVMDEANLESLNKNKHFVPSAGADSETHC
parameter.measured: IC50 (µM)

1. NC1(c2ccc(-c3nc(N4CC[C@@H]4C(F)F)nc4c3CCC4(F)F)cc2)COC1 (single isomer, unassigned) : 6.55
2. C[C@H]1[C@H](O)CN1c1nc(-c2ccc3c(c2)C(NS(C)(=O)=O)CC3)c2c(n1)C(F)(F)CC2 (stereo partly shown) : 1.64
3. C[C@H]1[C@H](O)CN1c1nc(-c2ccc3c(c2)S(=O)(=O)CCNC3)c2c(n1)C(F)(F)CC2 : 2.67
4. C[C@H]1[C@H](O)CN1c1nc(-c2ccc3c(=O)[nH]ccc3c2)c2c(n1)C(F)(F)CC2 : 0.35
5. C[C@H]1CCN1c1nc(N2CC[C@H](CC(=O)O)C2)cc(C(F)(F)F)c1C#N [Reference Compound 2, reference compound] : 0.267
6. C[C@H]1[C@H](O)CN1c1nc(-c2ccc3c(c2)OC[C@@]32COCC(=O)N2)c2c(n1)C(F)(F)CC2 (single isomer, unassigned) : 24.3
7. C[C@H]1[C@H](O)CN1c1nc2c(c(-c3ccc(C(N)=O)cc3)n1)CCC2 : 5.92

* * *

Molecular target: human KHK-A (Homo sapiens (Human))
Assay: KHK Biochemical Assay (IC50), ADP-Glo, KHK-A
Settings: ADP-Glo; average of at least two separate assays
pIC50: −log10 of the molar value.
parameter.measured: pIC50

1) C[C@H]1CCN1c1nc2c(c(-c3cccc(C(=O)N4CC[C@H]4C(=O)O)c3)n1)CCC2 : 6.55
2) C[C@H]1CCN1c1nc2c(c(-c3ccc(CC(N)=O)cc3)n1)CCC2 : 7.13
3) C[C@H]1CCN1c1nc2c(c(-c3cccc(C(=O)Nc4cn[nH]c4)c3)n1)CCC2 : 7.28
4) C[C@H]1[C@H](F)CN1c1nc2c(c(-c3ccc(S(N)(=O)=O)cc3)n1)CCC2 : 6.91
5) C[C@H]1CCN1c1nc2c(c(-c3cccc(NS(=O)(=O)CCC(=O)O)c3)n1)CCC2 : 7.49
6) NC1(c2ccc(-c3nc(N4CCC4C(F)F)nc4c3CCC4(F)F)cc2)CS(=O)(=O)C1 (centres unmarked) : 7.79
7) C[C@H]1CCN1c1nc2c(c(-c3ccc4nc(N)ccc4c3)n1)CCC2 : 7.67

* * *

compounds and their reported pIC50
Target: human KHK-A (Homo sapiens (Human), UniProt P50053)
Assay: KHK Biochemical Assay (IC50), ADP-Glo, KHK-A
Details: ADP-Glo; average of at least two separate assays
pIC50: −log10 of the molar value.
parameter.measured: pIC50

1) O=C1N[C@@]2(CO1)COc1cc(-c3nc(N4CCC4C(F)F)nc4c3CCC4(F)F)ccc12 (some centres unmarked) : 8.20
2) C[C@H]1CCN1c1nc2c(c(-c3ccc(C#N)c(F)c3)n1)CCC2 : 5.99
3) C[C@@H]1Oc2cc(-c3nc(N4CC[C@@H]4C)nc4c3CCC4)ccc2[C@H]1NS(C)(=O)=O : 7.57
4) C[C@H]1CCN1c1nc2c(c(-c3ccc(C(N)=O)c(C(F)(F)F)c3)n1)CCC2 : 7.72
5) C[C@H]1CCN1c1nc2c(c(-c3cccc(C(=O)O)c3)n1)CCC2 : 7.31
6) C[C@H]1CCN1c1nc2c(c(-c3cccc(C(=O)Nc4ccccc4)c3)n1)CCC2 : 6.07
7) C[C@H]1CCN1c1nc2c(c(-c3ccns3)n1)CCC2 : 7.47
8) C[C@H]1[C@H](O)CN1c1nc(-c2ccc(C#N)c(S(C)(=N)=O)c2)c2c(n1)C(F)(F)CC2 (some centres unmarked) : 7.15

* * *

Target: human KHK-A (Homo sapiens (Human))
Assay: KHK Biochemical Assay (IC50), ADP-Glo, KHK-A
Details: ADP-Glo; average of at least two separate assays
pIC50: −log10 of the molar value.
parameter.measured: pIC50

1. C[C@H]1CCN1c1nc2c(c(-c3cccc(-c4noc(=O)[nH]4)c3)n1)CCC2 [Example 872] : 7.57
2. C[C@H]1CCN1c1nc2c(c(-c3cnn(CCC(=O)O)c3)n1)CCC2 [Example 25] : 6.85
3. C[C@H]1CCN1c1nc2c(c(-c3ccc4c(c3)CN(C)C4=O)n1)CCC2 [Example 186] : 7.11
4. C[C@H]1CCN1c1nc2c(c(-c3cncnc3)n1)CCC2 [Example 16] : 6.11
5. Cc1nnc(-c2ccc(-c3nc(N4CC[C@@H]4C)nc4c3CCC4)cc2)o1 [Example 100] : 6.79
6. C[C@H]1CCN1c1nc2c(c(-c3ccc4c(c3)C(=O)NS4(=O)=O)n1)CCC2 [Example 239] : 6.93
7. NS(=O)(=O)c1cccc(-c2nc(N3CC[C@@H]3CO)nc3c2CCC3)c1 [Example 92] : 7.08

* * *

Target: human KHK-C (Homo sapiens (Human), UniProt P50053)
Assay: KHK Biochemical Assay (IC50), ADP-Glo, KHK-C
Conditions: ADP-Glo; average of at least two separate assays
pIC50: −log10 of the molar value.
molecules and their reported pIC50
parameter.measured: pIC50

1) C[C@H]1CCN1c1nc2c(c(-c3ccc4nn(C(=O)CN)cc4c3)n1)CCC2 [Example 238] : 7.17
2) C[C@H]1CCN1c1nc2c(c(-c3cc4cc(C(N)=O)ccc4[nH]3)n1)CCC2 [Example 152] : 7.03
3) COc1cc(-c2nc(N3C[C@@H](O)[C@@H]3C)nc3c2CCC3(F)F)ccc1C(N)=O [Example 177] : 7.84
4) C[C@H]1[C@H](O)CN1c1nc(-c2cc3c(c(S(N)(=O)=O)c2)OCC3)c2c(n1)C(F)(F)CC2 [Example 351] : 8.39
5) C[C@H]1CCN1c1nc(-c2cccc(C(N)=O)c2)c2c(n1)C1CCC2C1 (some centres unmarked) [Example 33] : 6.62
6) C[C@H]1CCN1c1nc(-c2ccns2)c2c(n1)C1CC1C2 (some centres unmarked) [Example 273] : 6.27
7) C[C@H]1CCN1c1nc2c(c(-c3cccc(S(=N)(=O)c4ccc(C#N)cc4)c3)n1)CCC2 (some centres unmarked) [Example 879] : 7.33
8) C[C@H]1CCN1c1nc2c(c(-c3cccc(C45CCC(C4)C5C(=O)O)c3)n1)CCC2 (some centres unmarked) [Example 115] : 6.96
9) C[C@H]1CCN1c1nc(-c2ccccc2)c2c(n1)[C@@H]1C[C@@H]1C2 [Example 333] : 5.88
10) Cc1ncc(-c2nc(N3CC[C@@H]3C)nc3c2CCC3)o1 [Example 325] : 6.35
11) C[C@H]1CCN1c1nc2c(c(-c3cccc(CN4CC(O)C4)c3)n1)CCC2 [Example 350] : 7.71
12) CC(=O)Nc1ncc(S(=O)(=O)Nc2cccc(-c3nc(N4CC[C@@H]4C)nc4c3CCC4)c2)s1 [Example 84] : 6.55
13) C[C@H]1CCN1c1nc2c(c(-c3ccc(C(N)=O)s3)n1)CCC2 [Example 56] : 8.11
14) C[C@H]1CCN1c1nc2c(c(-c3ccc4ccc(=O)n(CCC(=O)O)c4c3)n1)CCC2 [Example 133] : 6.85
15) CC1CCc2c(-c3ccccc3)nc(N3CC[C@@H]3C)nc21 (some centres unmarked) [Example 336] : 4.70
16) C[C@H]1CCN1c1nc2c(c(-c3cccc(C(=O)Nc4ccccc4)c3)n1)CCC2 [Example 297] : 5.55
17) C[C@H]1[C@H](O)CN1c1nc2c(c(-c3ccc4c(=O)[nH]ccc4c3)n1)CCC2 [Example 373] : 7.69

Provenance of the data: patent US12410160B2
